Tested on: 598228-144-R-J1-PDC complex spheroids, viability
Experiment: Anticancer human tumor 598228-144-R-J1-PDC patient-derived serous endometrial adenocarcinoma cell line growth inhibition [CLK]
Conditions: second compound 0.1 µM; first compound 1 µM; stronger effect = lower value
Mark each entry 1 if its viability, T/C sits below 40%, and 0 for all others.

Molecule	Classification
CC(Nc1ccc2c(c1)OCCn1cc(N3C(=O)OCC3C(F)F)nc1-2)C(N)=O (stereo unspecified) + CNC(=O)c1ccc(Nc2nc(OC3CCCC3)c3c(-c4ccc5nc(C)oc5c4)c[nH]c3n2)c(OC)c1	1
C#Cc1c(F)ccc2cc(O)cc(-c3ncc4c(N5CC6CCC(C5)N6)nc(OCC56CCCN5CC(F)C6)nc4c3F)c12 (stereo unspecified) + CN1CCN(c2cc(C(=O)Nc3cc4cc(-c5cnn(C)c5)ccc4cn3)ccn2)CC1	0
COc1ccc([C@@H](O)c2cc(-c3ncnc4cc(N5CCOCC5)ccc34)c(F)cc2Cl)nn1 + CNC(=O)c1ccc(Nc2nc(OC3CCCC3)c3c(-c4ccc5nc(C)oc5c4)c[nH]c3n2)c(OC)c1	0
CCc1c2c(nc3ccc(O)cc13)-c1cc3c(c(=O)n1C2)COC(=O)[C@]3(O)CC + CN1CCN(c2cc(C(=O)Nc3cc4cc(-c5cnn(C)c5)ccc4cn3)ccn2)CC1	1
COc1cccc2c1C(=O)c1c(O)c3c(c(O)c1C2=O)CC(O)(C(=O)CO)CC3OC1CC(N)C(O)C(C)O1 (stereo unspecified) + CNC(=O)c1ccc(Nc2nc(OC3CCCC3)c3c(-c4ccc5nc(C)oc5c4)c[nH]c3n2)c(OC)c1	1
O=C(c1cc(Cc2n[nH]c(=O)c3ccccc23)ccc1F)N1CCN(C(=O)C2CC2)CC1 + CN1CCN(c2cc(C(=O)Nc3cc4cc(-c5cnn(C)c5)ccc4cn3)ccn2)CC1	0
O=c1[nH]cc(F)c(=O)[nH]1 + CNC(=O)c1ccc(Nc2nc(OC3CCCC3)c3c(-c4ccc5nc(C)oc5c4)c[nH]c3n2)c(OC)c1	0
Nc1ccn(C2OC(CO)C(O)C2(F)F)c(=O)n1 (stereo unspecified) + CN1CCN(c2cc(C(=O)Nc3cc4cc(-c5cnn(C)c5)ccc4cn3)ccn2)CC1	1
C#Cc1c(F)ccc2cc(O)cc(-c3ncc4c(N5CC6CCC(C5)N6)nc(OCC56CCCN5CC(F)C6)nc4c3F)c12 (stereo unspecified) + CNC(=O)c1ccc(Nc2nc(OC3CCCC3)c3c(-c4ccc5nc(C)oc5c4)c[nH]c3n2)c(OC)c1	0
CC(CO)NC(=O)c1cc(-c2ccc(Cl)cc2)nn(-c2cnn(C)c2)c1=O (stereo unspecified) + CNC(=O)c1ccc(Nc2nc(OC3CCCC3)c3c(-c4ccc5nc(C)oc5c4)c[nH]c3n2)c(OC)c1	0
Nc1ccn(C2OC(CO)C(O)C2(F)F)c(=O)n1 (stereo unspecified) + CNC(=O)c1ccc(Nc2nc(OC3CCCC3)c3c(-c4ccc5nc(C)oc5c4)c[nH]c3n2)c(OC)c1	1

====

System: 598228-144-R-J1-PDC complex spheroids, viability
Test: Anticancer human tumor 598228-144-R-J1-PDC cell line growth inhibition [CLK];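 further: spheroids exposed to compounds for seven days before readout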
Details: curve of first compound; second compound 10 µM
Reported metric: IC50 (µM)

Compound	Numeric value
COc1cccc2c1C(=O)c1c(O)c3c(c(O)c1C2=O)CC(O)(C(=O)CO)CC3OC1CC(N)C(O)C(C)O1 (stereo unspecified) + CNC(=O)c1ccc(Nc2nc(OC3CCCC3)c3c(-c4ccc5nc(C)oc5c4)c[nH]c3n2)c(OC)c1	0.105
CCCS(=O)(=O)Nc1ccc(F)c(C(=O)c2c[nH]c3ncc(-c4ccc(Cl)cc4)cc23)c1F + CNC(=O)c1ccc(Nc2nc(OC3CCCC3)c3c(-c4ccc5nc(C)oc5c4)c[nH]c3n2)c(OC)c1	9.06
CCc1c2c(nc3ccc(O)cc13)-c1cc3c(c(=O)n1C2)COC(=O)[C@]3(O)CC + CNC(=O)c1ccc(Nc2nc(OC3CCCC3)c3c(-c4ccc5nc(C)oc5c4)c[nH]c3n2)c(OC)c1	0.0332
